molecular target: Human adrenergic α2A receptor (Homo sapiens, UniProt P08913); assay: Radioligand binding, adrenergic α2A (Protocol Group B); design: purchased Milipore (Millipore); details: 0.1 μM compound; Protocol Group B; 0.1 µM
Sequence (P08913 whole entry): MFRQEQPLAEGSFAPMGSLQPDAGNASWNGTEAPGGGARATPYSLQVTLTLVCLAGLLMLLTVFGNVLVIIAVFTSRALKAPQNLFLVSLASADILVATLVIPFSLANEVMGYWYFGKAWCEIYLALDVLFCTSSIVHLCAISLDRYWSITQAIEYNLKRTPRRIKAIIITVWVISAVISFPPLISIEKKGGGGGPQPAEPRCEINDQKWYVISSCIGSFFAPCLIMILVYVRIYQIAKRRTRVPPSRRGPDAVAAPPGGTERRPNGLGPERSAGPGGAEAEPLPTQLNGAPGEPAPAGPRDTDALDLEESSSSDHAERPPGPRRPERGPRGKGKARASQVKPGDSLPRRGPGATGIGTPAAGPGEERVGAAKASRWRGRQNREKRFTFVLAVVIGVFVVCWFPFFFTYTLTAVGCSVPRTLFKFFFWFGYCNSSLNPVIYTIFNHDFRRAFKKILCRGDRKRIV
Cut-off 20% on Percentage inhibition of ligand binding, Adrenergic α2A (0.1 μM), inclusive. At or above means class 1; below means class 0.

Q: Hi, just wondering whether Cc1ccc2c(c1)c1c(n2CC(C)(O)c2cccnc2)CC2CCCN2C1 (single isomer, unassigned) [38c] shows Percentage inhibition of ligand binding, Adrenergic α2A (0.1 μM) of 20% or higher.
Result: class 0

Q: Tell me whether Percentage inhibition of ligand binding, Adrenergic α2A (0.1 μM) is at least 20% here: Cc1ccc2c(c1)c1c(n2CC(C)(O)c2ccc(N(C)C)nc2)CCN(C)C1 (single isomer, unassigned) [39a]
Result: class 0

Q: Reported Percentage inhibition of ligand binding, Adrenergic α2A (0.1 μM) reaches at least 20% for CC(O)(Cn1c2c(c3cc(F)cc(Cl)c31)C1CCCN1CC2)c1cccnc1 (single isomer, unassigned) [89b] ?
Result: class 0

Q: API: above_or_equal(metric=Percentage inhibition of ligand binding, Adrenergic α2A (0.1 μM), cutoff=20%) for item OC(Cn1c2c(c3cc(Cl)ccc31)C1CCCN1CC2)c1ccncc1 (single isomer, unassigned) [143a]
Result: class 1

Q: Item Cc1ccc2c(c1)c1c(n2CC(OC2CCCC2)c2ccncc2)CCN(C)C1 (single isomer, unassigned) [35a] with Percentage inhibition of ligand binding, Adrenergic α2A (0.1 μM) of 20% or above?
Result: class 1

Q: Decide: Percentage inhibition of ligand binding, Adrenergic α2A (0.1 μM) of Cc1cc(F)cc2c3c(n(CC(C)(O)c4cccnc4)c12)CC1CCCN1C3 (single isomer, unassigned) [76a] >= 20%?
Result: class 0

Q: Decide: is the reported value of Percentage inhibition of ligand binding, Adrenergic α2A (0.1 μM) for Cc1ccc2c(c1)c1c(n2CC(O)c2ccncc2)CCN2CCCC12 (single isomer, unassigned) [Compound No. 178c] equal to or greater than 20%?
Result: class 1

Q: Decide: is the reported value of Percentage inhibition of ligand binding, Adrenergic α2A (0.1 μM) for Cc1ccc2c(c1)c1c(n2CC(C)(O)c2ccc(F)cc2)CN2CCC1C2 (single isomer, unassigned) [134c] equal to or greater than 20%?
Result: class 0

Q: Check this compound for Percentage inhibition of ligand binding, Adrenergic α2A (0.1 μM) at or above 20%: Cc1cc(Cl)c2c(c1)c1c(n2CC(C)(O)c2ccncc2)CCN2CCCC12 (single isomer, unassigned) [91c]
Result: class 0

Q: Is Percentage inhibition of ligand binding, Adrenergic α2A (0.1 μM) at least 20%? Consider Cc1cc(F)c2c(c1)c1c(n2CC(C)(O)c2cccnc2)CC2CCCN2C1 (single isomer, unassigned) [61d]
Result: class 0

Q: Quick check, Percentage inhibition of ligand binding, Adrenergic α2A (0.1 μM) >= 20%? CC(O)(Cn1c2c(c3cc(F)ccc31)C1CCCN1CC2)c1cccnc1 (stereo not drawn) [57b]
Result: class 0

Q: I'd appreciate it if you could say whether OC(Cn1c2c(c3cc(F)cc(F)c31)C1CCCN1CC2)c1ccncc1 (single isomer, unassigned) [144b] has Percentage inhibition of ligand binding, Adrenergic α2A (0.1 μM) at least equal to 20%.
Result: class 1

Q: Test whether the compound CC(O)(Cn1c2c(c3cc(F)ccc31)C1CCCN1CC2)c1cccnc1 (stereo not drawn) [51b] records Percentage inhibition of ligand binding, Adrenergic α2A (0.1 μM) of 20% or higher.
Result: class 0

Q: Does the reported Percentage inhibition of ligand binding, Adrenergic α2A (0.1 μM) for Cc1ccc2c(c1F)c1c(n2CC(C)(O)c2cccnc2)CCN2CCCC12 (single isomer, unassigned) [87c] fall at or above the 20% mark?
Result: class 1

Q: Is the recorded value of Percentage inhibition of ligand binding, Adrenergic α2A (0.1 μM) equal to or greater than 20% for this compound? Cc1ccc2c(c1)c1c(n2CC(C)(O)c2cccnc2)CC2CCCN2C1 (single isomer, unassigned) [38b]
Result: class 0
